- ASSAY EXPLANATION: MRT in mouse at 20 mg/kg, IG administered single dose
- Assay type: ADME, organism-based
- CONDITION CONTEXT: in vivo, po
ENDPOINT LABEL: MRT (h)

[[record]]
chemical_smiles = "CCN(CC)C(=O)c1cc(C(=O)c2ccccc2)n2cccc2c1"
value = 2.65


====

- ASSAY EXPLANATION: AUC (0 to t) in mouse at 20 mg/kg, IG administered single dose
- Assay type: ADME, organism-based
- CONDITION CONTEXT: in vivo, po
ENDPOINT LABEL: AUC(0-t) (ng·h/mL)

[[record]]
chemical_smiles = "CCN(CC)C(=O)c1cc(C(=O)c2ccccc2)n2cccc2c1"
value = 2200


====

- ASSAY EXPLANATION: AUC (0 to infinitive) in mouse at 1 mg/kg, iv administered single dose
- Format: ADME, organism-based
- CONDITION CONTEXT: in vivo
ENDPOINT LABEL: AUC(0-inf) (ng·h/mL)

[[record]]
chemical_smiles = "CCN(CC)C(=O)c1cc(C(=O)c2ccccc2)n2cccc2c1"
endpoint_label = "AUC(0-inf)"
units = "ng·h/mL"
value = 220


====

- TESTED SYSTEM: Transient receptor potential cation channel subfamily M member 2 (Homo sapiens)
- Sequence (O94759 whole entry): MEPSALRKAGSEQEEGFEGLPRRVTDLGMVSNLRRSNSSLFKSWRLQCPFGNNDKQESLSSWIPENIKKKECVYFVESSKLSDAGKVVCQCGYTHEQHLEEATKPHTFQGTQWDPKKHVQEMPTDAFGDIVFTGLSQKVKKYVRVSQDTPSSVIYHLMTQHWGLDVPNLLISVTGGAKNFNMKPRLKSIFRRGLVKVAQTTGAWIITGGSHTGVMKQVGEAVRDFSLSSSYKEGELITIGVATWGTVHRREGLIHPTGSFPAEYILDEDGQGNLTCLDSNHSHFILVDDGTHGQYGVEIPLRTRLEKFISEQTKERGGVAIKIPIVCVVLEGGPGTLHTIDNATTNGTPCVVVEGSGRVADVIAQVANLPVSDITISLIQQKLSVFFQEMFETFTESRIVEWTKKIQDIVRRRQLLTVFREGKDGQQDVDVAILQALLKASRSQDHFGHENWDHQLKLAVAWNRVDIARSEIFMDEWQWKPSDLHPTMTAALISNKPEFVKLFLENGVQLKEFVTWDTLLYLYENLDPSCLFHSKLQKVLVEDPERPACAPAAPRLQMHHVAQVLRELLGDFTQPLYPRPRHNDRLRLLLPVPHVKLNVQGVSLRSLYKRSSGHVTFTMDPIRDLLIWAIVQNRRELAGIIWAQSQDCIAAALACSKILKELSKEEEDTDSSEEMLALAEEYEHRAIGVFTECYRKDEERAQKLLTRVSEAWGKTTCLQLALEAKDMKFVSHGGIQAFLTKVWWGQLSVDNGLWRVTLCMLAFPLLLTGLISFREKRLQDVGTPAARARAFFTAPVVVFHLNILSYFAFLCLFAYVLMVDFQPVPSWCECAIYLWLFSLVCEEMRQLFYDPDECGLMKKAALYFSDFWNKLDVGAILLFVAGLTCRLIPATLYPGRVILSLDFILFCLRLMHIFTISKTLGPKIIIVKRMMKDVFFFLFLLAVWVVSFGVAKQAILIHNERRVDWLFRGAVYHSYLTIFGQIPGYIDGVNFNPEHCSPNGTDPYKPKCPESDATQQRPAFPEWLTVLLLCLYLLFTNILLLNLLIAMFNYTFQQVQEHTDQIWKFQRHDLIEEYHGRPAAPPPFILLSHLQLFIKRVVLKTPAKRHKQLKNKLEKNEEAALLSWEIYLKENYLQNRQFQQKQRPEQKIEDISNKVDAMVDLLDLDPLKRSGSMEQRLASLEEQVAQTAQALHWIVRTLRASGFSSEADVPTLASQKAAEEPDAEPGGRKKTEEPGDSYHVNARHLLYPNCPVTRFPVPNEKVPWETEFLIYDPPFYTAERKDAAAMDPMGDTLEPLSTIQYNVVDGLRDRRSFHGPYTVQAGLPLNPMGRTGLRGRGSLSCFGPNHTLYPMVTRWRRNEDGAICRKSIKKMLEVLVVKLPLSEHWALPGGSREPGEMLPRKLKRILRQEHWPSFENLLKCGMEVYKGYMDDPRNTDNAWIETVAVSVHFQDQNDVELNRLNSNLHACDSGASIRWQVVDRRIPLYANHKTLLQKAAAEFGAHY
- ASSAY EXPLANATION: Inhibition of TRPM2 channel (unknown origin) in doxycycline-inducible human HEK-293T cells assessed as inhibition of ADPR activated current by measuring inhibition rate at +80 mV to -80 mV at 1 uM by whole-cell patch clamp electrophysiology relative to control
pIC50: −log10 of the molar value.
ENDPOINT LABEL: pIC50

[[record]]
chemical_smiles = "O=C(c1ccccc1)c1cc(C(=O)N2CCCCC2)cc2cccn12"
endpoint_label = "pIC50"
value = 5.55

[[record]]
chemical_smiles = "CCN(CC)C(=O)c1cc(C(=O)c2ccccc2)n2cccc2c1"
endpoint_label = "pIC50"
value = 5.64

[[record]]
chemical_smiles = "O=C(c1ccccc1)c1cc(C(=O)N2CCCC2)cc2cccn12"
endpoint_label = "pIC50"
value = 5.51

[[record]]
chemical_smiles = "O=C(c1ccccc1)c1cc(C(=O)N2CCOCC2)cc2cccn12"
endpoint_label = "pIC50"
value = 5.54


====

- ASSAY EXPLANATION: Tmax in mouse at 100 mg/kg, IG administered single dose
- Format: ADME, organism-based
- CONDITION CONTEXT: in vivo, po
ENDPOINT LABEL: Tmax (h)

[[record]]
chemical_smiles = "CCN(CC)C(=O)c1cc(C(=O)c2ccccc2)n2cccc2c1"
endpoint_label = "Tmax"
value = 1.1


====

- ASSAY EXPLANATION: Cmax in mouse at 20 mg/kg, IG administered single dose
- Assay type: ADME, organism-based
- CONDITION CONTEXT: in vivo, po
ENDPOINT LABEL: Cmax

[[record]]
chemical_smiles = "CCN(CC)C(=O)c1cc(C(=O)c2ccccc2)n2cccc2c1"
value = "330 ng/mL"


====

- ASSAY EXPLANATION: Half life in mouse at 20 mg/kg, IG administered single dose
- Format: ADME, organism-based
- CONDITION CONTEXT: in vivo, po
ENDPOINT LABEL: half-life (h)

[[record]]
chemical_smiles = "CCN(CC)C(=O)c1cc(C(=O)c2ccccc2)n2cccc2c1"
units = "h"
value = 2.62


====

- ASSAY EXPLANATION: Tmax in mouse at 20 mg/kg, IG administered single dose
- Format: ADME, organism-based
- CONDITION CONTEXT: in vivo, po
ENDPOINT LABEL: Tmax (min)

[[record]]
chemical_smiles = "CCN(CC)C(=O)c1cc(C(=O)c2ccccc2)n2cccc2c1"
value = 49.8


====

- ASSAY EXPLANATION: Oral bioavailability in mouse at 20 mg/kg, IG administered single dose
- Assay type: ADME, organism-based
- CONDITION CONTEXT: in vivo
ENDPOINT LABEL: bioavailability

[[record]]
chemical_smiles = "CCN(CC)C(=O)c1cc(C(=O)c2ccccc2)n2cccc2c1"
value = "50%"


====

- ASSAY EXPLANATION: AUC (0 to t) in mouse at 1 mg/kg, iv administered single dose
- Type: ADME, organism-based
- CONDITION CONTEXT: in vivo
ENDPOINT LABEL: AUC(0-t) (ng·h/mL)

[[record]]
chemical_smiles = "CCN(CC)C(=O)c1cc(C(=O)c2ccccc2)n2cccc2c1"
units = "ng·h/mL"
value = 220


====

- ASSAY EXPLANATION: Half life in mouse at 100 mg/kg, IG administered single dose
- Format: ADME, organism-based
- CONDITION CONTEXT: in vivo, po
ENDPOINT LABEL: half-life

[[record]]
chemical_smiles = "CCN(CC)C(=O)c1cc(C(=O)c2ccccc2)n2cccc2c1"
endpoint_label = "half-life"
value = "2.83 h"


====

- ASSAY EXPLANATION: Clearance in mouse at 1 mg/kg, iv administered single dose
- Format: ADME, organism-based
- CONDITION CONTEXT: in vivo
ENDPOINT LABEL: clearance (mL/min/kg)

[[record]]
chemical_smiles = "CCN(CC)C(=O)c1cc(C(=O)c2ccccc2)n2cccc2c1"
value = 75.8


====

- ASSAY EXPLANATION: Cmax in mouse at 100 mg/kg, IG administered single dose
- Assay type: ADME, organism-based
- CONDITION CONTEXT: in vivo, po
ENDPOINT LABEL: Cmax (ng/mL)

[[record]]
chemical_smiles = "CCN(CC)C(=O)c1cc(C(=O)c2ccccc2)n2cccc2c1"
units = "ng/mL"
value = 1520


====

- ASSAY EXPLANATION: Oral bioavailability in mouse at 100 mg/kg, IG administered single dose
- Assay type: ADME, organism-based
- CONDITION CONTEXT: in vivo
ENDPOINT LABEL: bioavailability (%)

[[record]]
chemical_smiles = "CCN(CC)C(=O)c1cc(C(=O)c2ccccc2)n2cccc2c1"
endpoint_label = "bioavailability"
value = 48.2

